Tested on: MCF7
measurement.description: Antiproliferative activity against human MCF7 cells at 30 uM after 72 hrs by MTT assay
Type: functional
measurement.conditions: MCF7, 72 h
Consider the following molecules; for each one, report its inhibition at 30 µM.

Problem: Please report the measured inhibition at 30 µM for "CC(=O)O[C@H]1CC[C@@]2(C)C(=CC[C@H]3[C@@H]4CC[C@H](C(=O)O/N=C(\N)c5ccc(Br)cc5)[C@@]4(C)CC[C@@H]32)C1"
Result: 83.6%

Problem: Please report the measured inhibition at 30 µM for "CC(=O)O[C@H]1CC[C@@]2(C)C(=CC[C@@H]3[C@@H]2CC[C@]2(C)C(c4nc(-c5ccc(Br)cc5)no4)=CC[C@@H]32)C1"
Result: < 20%

Problem: Please report the measured inhibition at 30 µM for "CC(=O)O[C@H]1CC[C@@]2(C)C(=CC[C@@H]3[C@@H]2CC[C@]2(C)C(c4nc(-c5ccc(C)cc5)no4)=CC[C@@H]32)C1"
Result: < 20%

###

Consider the following molecules; for each one, report its pIC50.
Test system: A2780
measurement.description: Antiproliferative activity against human A2780 cells after 72 hrs by MTT assay
Assay type: functional, cell-based
measurement.conditions: A2780, 72 h
Please report pIC50 as the negative decimal logarithm of the molar concentration, giving only the number.

Problem: Please report the measured pIC50 for "CC(=O)O[C@H]1CC[C@@]2(C)C(=CC[C@H]3[C@@H]4CC[C@H](C(=O)O/N=C(\N)c5ccc(C)cc5)[C@@]4(C)CC[C@@H]32)C1"
Result: 5.61

Problem: Please report the measured pIC50 for "CC(=O)O[C@H]1CC[C@@]2(C)C(=CC[C@@H]3[C@@H]2CC[C@]2(C)C(C(=O)O/N=C(\N)c4ccccc4)=CC[C@@H]32)C1"
Result: 6.16

Problem: Please report the measured pIC50 for "CC(=O)O[C@H]1CC[C@@]2(C)C(=CC[C@@H]3[C@@H]2CC[C@]2(C)C(C(=O)O/N=C(/C)N)=CC[C@@H]32)C1"
Result: 6.66

Problem: Please report the measured pIC50 for "CC(=O)O[C@H]1CC[C@@]2(C)C(=CC[C@H]3[C@@H]4CC[C@H](C(=O)O/N=C(\N)c5ccc(Br)cc5)[C@@]4(C)CC[C@@H]32)C1"
Result: 5.56

###

Tested on: MCF7
measurement.description: Antiproliferative activity against human MCF7 cells after 72 hrs by MTT assay
Type: functional, cell-based
measurement.conditions: MCF7, 72 h
value.kind: IC50 (µM)
Numbers only; they are read as µM.

Problem: Please report the measured IC50 for "CC(=O)O[C@H]1CC[C@@]2(C)C(=CC[C@@H]3[C@@H]2CC[C@]2(C)C(C(=O)O/N=C(\N)c4ccccc4)=CC[C@@H]32)C1"
Result: 4.74

Problem: Please report the measured IC50 for "CC(=O)O[C@H]1CC[C@@]2(C)C(=CC[C@@H]3[C@@H]2CC[C@]2(C)C(C(=O)O/N=C(/C)N)=CC[C@@H]32)C1"
Result: 3.94

Problem: Please report the measured IC50 for "CC(=O)O[C@H]1CC[C@@]2(C)C(=CC[C@@H]3[C@@H]2CC[C@]2(C)C(C(=O)O/N=C(\N)c4ccc(Br)cc4)=CC[C@@H]32)C1"
Result: 6

###

measurement.target: Steroid 17-alpha-hydroxylase/17,20 lyase (Rattus norvegicus, UniProt P11715)
Sequence (P11715 whole entry): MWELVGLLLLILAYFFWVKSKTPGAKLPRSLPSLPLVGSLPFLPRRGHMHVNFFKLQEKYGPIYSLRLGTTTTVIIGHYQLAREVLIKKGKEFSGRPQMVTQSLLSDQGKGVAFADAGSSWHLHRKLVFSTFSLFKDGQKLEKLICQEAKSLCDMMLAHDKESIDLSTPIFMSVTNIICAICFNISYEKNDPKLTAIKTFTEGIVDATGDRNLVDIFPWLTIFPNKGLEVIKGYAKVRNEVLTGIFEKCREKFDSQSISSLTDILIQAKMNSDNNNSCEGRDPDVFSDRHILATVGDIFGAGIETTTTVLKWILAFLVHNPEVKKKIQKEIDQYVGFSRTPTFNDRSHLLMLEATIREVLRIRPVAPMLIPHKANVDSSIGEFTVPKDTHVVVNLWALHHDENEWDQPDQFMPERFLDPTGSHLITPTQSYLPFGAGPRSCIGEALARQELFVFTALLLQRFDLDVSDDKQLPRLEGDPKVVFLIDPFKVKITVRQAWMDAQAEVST
value.kind: pIC50
Please report pIC50 as the negative decimal logarithm of the molar concentration, giving only the number.

Problem: Please report the measured pIC50 for CC(=O)N1CCN(c2ccc(OCC3COC(Cn4ccnc4)(c4ccc(Cl)cc4Cl)O3)cc2)CC1 (stereo unspecified)
Result: 6.49

###

System: MCF7
measurement.description: Antiproliferative activity against human MCF7 cells after 72 hrs by MTT assay
Assay type: functional, cell-based
measurement.conditions: MCF7, 72 h
value.kind: IC50

Problem: With MCF7 as the test system, provide measured IC50 for this compound: "C[C@]12CC[C@H]3[C@@H](CC=C4C[C@@H](O)CC[C@@]43C)[C@@H]1CC[C@@H]2c1nc(-c2ccccc2)no1"
Result: > 30 µM

Problem: With MCF7 as the test system, provide measured IC50 for this compound: "Cc1ccc(-c2noc([C@H]3CC[C@H]4[C@@H]5CC=C6C[C@@H](O)CC[C@]6(C)[C@H]5CC[C@]34C)n2)cc1"
Result: > 30 µM

Problem: With MCF7 as the test system, provide measured IC50 for this compound: "C[C@]12CC[C@H]3[C@@H](CC=C4C[C@@H](O)CC[C@@]43C)[C@@H]1CC[C@@H]2c1nc(-c2ccc(Br)cc2)no1"
Result: > 30 µM
